STUDY TARGET: VIPR1 (Homo sapiens)
Construct: purchased Promega (in-house HiBiT-GPCR construct library, NanoBRET)
Sequence (P32241 31-457): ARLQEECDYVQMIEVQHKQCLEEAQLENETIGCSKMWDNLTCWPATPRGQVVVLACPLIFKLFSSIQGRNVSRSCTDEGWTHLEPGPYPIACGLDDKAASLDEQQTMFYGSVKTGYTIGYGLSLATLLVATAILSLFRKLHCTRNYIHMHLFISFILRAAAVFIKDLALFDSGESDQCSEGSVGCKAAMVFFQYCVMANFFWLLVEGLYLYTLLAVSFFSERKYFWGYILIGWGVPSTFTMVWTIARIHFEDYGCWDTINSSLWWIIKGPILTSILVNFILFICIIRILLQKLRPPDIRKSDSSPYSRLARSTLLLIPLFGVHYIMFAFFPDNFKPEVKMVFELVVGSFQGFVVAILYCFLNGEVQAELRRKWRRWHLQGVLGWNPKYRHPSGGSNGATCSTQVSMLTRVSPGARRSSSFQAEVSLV
EXPERIMENT SUMMARY: NanoBRET screen HiBiT-VIPR1 in HEK293
Type: binding
MEASUREMENT CONDITIONS: VIPR1; tracer 0.1μM
Each item that follows carries a reported NanoBRET Fold Response.

| COMPOUND | NanoBRET Fold Response |
| --- | --- |
| COc1ccccc1N1CCN(CCCCN2C(=O)c3ccc(CNC(=O)CCOCCNC(=O)c4ccc(CNC(=O)CCc5ccc6n5[B-](F)(F)[N+]5=C(c7ccc[nH]7)C=CC5=C6)cc4)cc3C2=O)CC1 | 0.71 |
| Cc1nc2n(c(=O)c1CCN1CCC(c3noc4cc(F)ccc34)CC1)CCCC2OC(=O)NCCOCCOCCOCCOCCNC(=O)CCc1ccc2n1[B-](F)(F)[N+]1=C(c3ccc[nH]3)C=CC1=C2 (stereo not drawn) | 0.98 |
| CC(C)N(CC[C@H](c1ccccc1)c1cc(CCNC(=O)c2ccc(CNC(=O)CCc3ccc4n3[B-](F)(F)[N+]3=C(c5ccc[nH]5)C=CC3=C4)cc2)ccc1O)C(C)C | 0.97 |
| O=C(CCc1ccc2n1[B-](F)(F)[N+]1=C(c3ccc[nH]3)C=CC1=C2)NCc1ccc(C(=O)NCCOCCC(=O)N[C@@H]2CC[C@@]3(O)[C@H]4Cc5ccc(O)c6c5[C@@]3(CCN4CC3CC3)[C@H]2O6)cc1 [Naltrexone-3-NB590] | 0.95 |
| COc1ccccc1N1CCN(CCCCN2C(=O)c3ccc(CNC(=O)CCOCCOCCOCCOCCNC(=O)CCc4ccc5n4[B-](F)(F)[N+]4=C(c6ccc[nH]6)C=CC4=C5)cc3C2=O)CC1 | 1.00 |
| O=C(CCc1ccc2n1[B-](F)(F)[N+]1=C(c3ccc[nH]3)C=CC1=C2)NCCOCCOCCNC(=O)OCCOCCN1CCN(C2=Nc3ccccc3Sc3ccccc32)CC1 | 1.03 |
